target: HIV-1 protease MDR 3761 (Human immunodeficiency virus type 1 group M subtype B, UniProt P12497, A559I/G561T/I503V/I552V/I572V/I581L/K508I/L498I/L507I/L551P/L578M/M534I/P567S/Q495K/T500A); assay: HIV-1 protease inhibition (FRET substrate cleavage), MDR 3761; settings: FRET substrate I, 0.1 M sodium acetate, 1.0 M NaCl, 1.0 mM EDTA, 1.0 mM DTT, 10% DMSO, 1 mg/mL BSA, pH 4.7, fluorescence 340/490 nm, read-out: IC50 of HIV-1 protease inhibitors

| Molecule | Unit label | IC50 |
| --- | --- | --- |
| COC(=O)N[C@H](C(=O)N[C@@H](Cc1ccccc1)[C@@H](O)CN(Cc1ccc(-c2ccccn2)cc1)NC(=O)[C@@H](NC(=O)OC)C(C)(C)C)C(C)(C)C [ATV, atazanavir] | nM | 2.2 |
| CCC[C@@]1(CCc2ccccc2)CC(O)=C([C@H](CC)c2cccc(NS(=O)(=O)c3ccc(C(F)(F)F)cn3)c2)C(=O)O1 [TPV, tipranavir] | nM | 0.63 |
| CC(C)CN(C[C@@H](O)[C@H](Cc1ccccc1)NC(=O)O[C@H]1CCOC1)S(=O)(=O)c1ccc(N)cc1 [APV, amprenavir] | nM | 4.1 |
| Cc1c(O)cccc1C(=O)N[C@@H](CSc1ccccc1)[C@H](O)CN1C[C@H]2CCCC[C@H]2C[C@H]1C(=O)NC(C)(C)C [NFV, nelfinavir] | nM | 430 |

* * *

A collection of compounds and their measured pIC50
target: HIV-1 protease MDR 769 (Human immunodeficiency virus type 1 group M subtype B, UniProt P12497, A559V/I542V/I550V/I572V/L498I/L551P/L578M/M524V/M534L/Q495K/V570A); experiment: HIV-1 protease inhibition (FRET substrate cleavage), MDR 769; details: FRET substrate I, 0.1 M sodium acetate, 1.0 M NaCl, 1.0 mM EDTA, 1.0 mM DTT, 10% DMSO, 1 mg/mL BSA, pH 4.7, fluorescence 340/490 nm, read-out: IC50 of HIV-1 protease inhibitors
pIC50: −log10 of the molar value.

| Given smiles | pIC50 |
| --- | --- |
| COC(=O)N[C@H](C(=O)N[C@@H](Cc1ccccc1)[C@@H](O)CN(Cc1ccc(-c2ccccn2)cc1)NC(=O)[C@@H](NC(=O)OC)C(C)(C)C)C(C)(C)C | 8.54 |
| CCC[C@@]1(CCc2ccccc2)CC(O)=C([C@H](CC)c2cccc(NS(=O)(=O)c3ccc(C(F)(F)F)cn3)c2)C(=O)O1 | 9.19 |
| Cc1c(O)cccc1C(=O)N[C@@H](CSc1ccccc1)[C@H](O)CN1C[C@H]2CCCC[C@H]2C[C@H]1C(=O)NC(C)(C)C | 6.96 |
| CC(C)CN(C[C@@H](O)[C@H](Cc1ccccc1)NC(=O)O[C@H]1CCOC1)S(=O)(=O)c1ccc(N)cc1 | 8.32 |

* * *

target: HIV-1 protease MDR 1385 (Human immunodeficiency virus type 1 group M subtype B, UniProt P12497, A559V/I581L/L498F/L551P/L577M/L578M/M524I/M534I/N525D/Q495K/R545K/V570T); assay: HIV-1 protease inhibition (FRET substrate cleavage), MDR 1385; conditions: FRET substrate I, 0.1 M sodium acetate, 1.0 M NaCl, 1.0 mM EDTA, 1.0 mM DTT, 10% DMSO, 1 mg/mL BSA, pH 4.7, fluorescence 340/490 nm, read-out: IC50 of HIV-1 protease inhibitors

| Molecule | IC50 / nM |
| --- | --- |
| CCC[C@@]1(CCc2ccccc2)CC(O)=C([C@H](CC)c2cccc(NS(=O)(=O)c3ccc(C(F)(F)F)cn3)c2)C(=O)O1 [TPV, tipranavir] | 2.8 |
| CC(C)CN(C[C@@H](O)[C@H](Cc1ccccc1)NC(=O)O[C@H]1CCOC1)S(=O)(=O)c1ccc(N)cc1 [APV, amprenavir] | 3.1 |
| Cc1c(O)cccc1C(=O)N[C@@H](CSc1ccccc1)[C@H](O)CN1C[C@H]2CCCC[C@H]2C[C@H]1C(=O)NC(C)(C)C [NFV, nelfinavir] | 230 |
| COC(=O)N[C@H](C(=O)N[C@@H](Cc1ccccc1)[C@@H](O)CN(Cc1ccc(-c2ccccn2)cc1)NC(=O)[C@@H](NC(=O)OC)C(C)(C)C)C(C)(C)C [ATV, atazanavir] | 4.6 |

* * *

A collection of compounds and their measured IC50
molecular target: HIV-1 protease MDR 807 (Human immunodeficiency virus type 1 group M subtype B, UniProt P12497, A559V/G536V/I542T/I550V/I581L/L498I/L551Q/M534I/Q495K/Q549N/R529K/T562A/V565I/V570A); experiment: HIV-1 protease inhibition (FRET substrate cleavage), MDR 807; conditions: FRET substrate I, 0.1 M sodium acetate, 1.0 M NaCl, 1.0 mM EDTA, 1.0 mM DTT, 10% DMSO, 1 mg/mL BSA, pH 4.7, fluorescence 340/490 nm, read-out: IC50 of HIV-1 protease inhibitors
Experimental readout: IC50 (nM)

| Compound | Number |
| --- | --- |
| Cc1c(O)cccc1C(=O)N[C@@H](CSc1ccccc1)[C@H](O)CN1C[C@H]2CCCC[C@H]2C[C@H]1C(=O)NC(C)(C)C [NFV, nelfinavir] | 210 |
| CCC[C@@]1(CCc2ccccc2)CC(O)=C([C@H](CC)c2cccc(NS(=O)(=O)c3ccc(C(F)(F)F)cn3)c2)C(=O)O1 [TPV, tipranavir] | 0.63 |
| COC(=O)N[C@H](C(=O)N[C@@H](Cc1ccccc1)[C@@H](O)CN(Cc1ccc(-c2ccccn2)cc1)NC(=O)[C@@H](NC(=O)OC)C(C)(C)C)C(C)(C)C [ATV, atazanavir] | 7.6 |
| CC(C)CN(C[C@@H](O)[C@H](Cc1ccccc1)NC(=O)O[C@H]1CCOC1)S(=O)(=O)c1ccc(N)cc1 [APV, amprenavir] | 2.9 |
